- System: HOP-92 NSCLC
- test-summary: NCI-60 one-dose screen, 48 h (100 = growth as untreated, 0 = no growth, -100 = all killed)
- reported-conditions: 10 µM unless noted
- Method: Growth inhibition of the HOP-92 human Non-Small Cell Lung tumor cell line is measured as a screen for anti-cancer activity. Cells are grown in 96 well plates and exposed to the test compound for 48 hours. Compounds are tested at a single concentration, which is 10^-5 M for most compounds. The reported endpoint is percent growth (GI% or GIPRCNT), where numbers from 0 - 100% represent growth inhibition, and numbers from -100% - 0 represent cell death. […]
This is part of a sample that, as a whole, favours compounds with a hit. Of some 83,000 tested, about 20% had one in any assay. The source made the active and inactive calls. How the source made its calls: active means growth percent below 10; inactive means the rest.
recorded-metric: growth

Look over these answered cases.
| compound | growth |
| --- | --- |
| O=C(/C=C(/C=C/c1ccc2[nH]ccc2c1)OB(F)F)/C=C/c1ccc2[nH]ccc2c1 | 4.49% (active) |
| COC(=O)[C@]1(C)CCC[C@]2(C)[C@H]3C[C@H]4C(C(C)C)=C[C@]3(CC[C@H]21)[C@@H]1C(=O)CC[C@H](OCCC#N)[C@@H]14 | 76.6% (inactive) |

Ask: Query (compound): CC(C)C1=NOC(=O)C1=Cc1cn(-c2ccccc2)nc1-c1ccc(F)cc1 ; field requested: growth
Reply: 89.8% (inactive)

Ask: Do the same for Cc1ccc2c(c1)=C/C(=C\c1cc(-c3ccccc3)oc1O)C(=O)N=2 please
Reply: 87.4% (inactive)

Ask: Field entry: Cc1ccc(C2=Nc3c(N)ncnc3NC(c3cccc(Nc4ccnc5cc(C(F)(F)F)ccc45)c3)C2)cc1 (centres undefined)
Reply: 2.86% (active)

Ask: # iterate: COc1cccc(/C=C2\COc3ccc(O)c(O)c3C2=O)c1
Reply: -12% (active)

Ask: Thanks! And CCCCn1c(=O)[nH]c(N)c([C@@H]2c3c([nH]c(=O)n(CCCC)c3=O)Oc3ccc4ccccc4c32)c1=O ?
Reply: 83.3% (inactive)
